System: Aorta
run_description: Vasorelaxant activity in Wistar rat aorta with endothelium assessed as inhibition of norepinephrine-induced contraction
Type: functional, tissue-based
Reported pEC50 by item:
Just so you know, pEC50 here is -log10 of the concentration in molar units; reply with that number alone.

Answered cases to consult:
In [3]: df
Out[3]:
                           smiles_str  assay_target  measure  reading
0          C[N+](C)(C)CCOC(N)=O.[Cl-]         Aorta    pEC50     6.39
1  COc1c(O)cc2cc(OC)c3cc(O)ccc3c2c1OC         Aorta    pEC50     4.20
2   COc1c(O)cc2c(c1OC)-c1ccc(O)cc1CC2         Aorta    pEC50     3.85

Now turn to the next molecule.
Reported pEC50 ( COc1c(O)cc2cc(OC)c3cccc(O)c3c2c1OC ) = 3.63

###

System: Aorta
run_description: Vasorelaxant activity in Wistar rat aorta without endothelium assessed as inhibition of norepinephrine-induced contraction relative to control
Type: functional
measure: Efficacy (%)
# value in %; strip the unit string

Use these answered entries as a reference point.
                                 smiles_str  unit_name  reading
0  COC(=O)C1=C(C)NC(C)=C(C(=O)OC)C1c1ccccc1[N+](=O)[O-]          %       97
1         COc1c(O)cc2c(c1OC)-c1ccc(O)cc1CC2          %     82.4
2        COc1c(O)cc2cc(OC)c3cc(O)ccc3c2c1OC          %    98.18

Let us examine a further case.
Record summary for COc1c(O)cc2cc(OC)c3cccc(O)c3c2c1OC : reported Efficacy = 73.86
